system: SK-MEL-28 melanoma; test: NCI tumour cell line growth inhibition, 48 h; in the data active means GI50 below about 0.43 µM; inactive means the rest
Outcomes: active, inactive

compound=NC1=CC(=O)c2cccnc2C1=O label_value=inactive
compound="COc1cccc(CCC2CCCN(c3cc(C)nc(N)n3)C2)c1 (configuration not stated)" label_value=inactive
compound=CSC1=Nc2c(c(C)c(-c3ccccc3)n2CCCN2CCCCC2)C2=NC(=O)C[C@H](C)N12 label_value=inactive
compound=CC1(C)N=C(N)N=C(N)N1c1ccc(CCCCc2ccccc2)c(Cl)c1 label_value=inactive
compound=Nc1ccccc1NC(=O)c1ccc(CNc2nccc(-c3cccnc3)n2)cc1 label_value=inactive
compound=CN(C)c1ccc(/C=C/C(=O)[O-])cc1.CN(C)c1ccc(/C=C/C(=O)[O-])cc1.[Cu+2] label_value=inactive
compound="c1ccc(N2N=C(c3cccc(Nc4ccncc4)c3)CC2c2ccc3c(c2)OCO3)cc1 (configuration not stated)" label_value=inactive
compound=C[C@]12CC[C@@H]3c4cc(OC(F)F)c(O)cc4CC[C@H]3[C@@H]1CC[C@@H]2OS(N)(=O)=O label_value=inactive
compound=COc1ccc(C(=O)Nc2ncc(Cc3cccc(Cl)c3)s2)cc1OC label_value=active
compound=Cn1cc(C2=C(c3ccccc3[N+](=O)[O-])C(=O)NC2=O)c2ccccc21 label_value=inactive
compound=CCOC(=O)[C@@H](C)C[C@H](Cc1ccccc1)NC(=O)c1nc([C@@H](C[C@H](C(C)C)N(C)C(=O)[C@@H](NC(=O)[C@H]2CCCCN2C)C(C)C)OC(C)=O)sc1CCOCc1ccccc1 label_value=inactive
compound=COC(=O)[C@@H](C)C[C@H](Cc1cn(C)c2ccccc12)NC(=O)c1csc([C@@H](C[C@H](C(C)C)N(C)C(=O)[C@@H](NC(=O)[C@H]2CCCCN2C)C(C)C)OC(C)=O)n1 label_value=inactive
